test system: LNCaP tumor-transplanted mouse; assay: Internal radioactivity distribution using LNCaP tumor-transplanted mouse; assay type: in vivo; conditions: 1 h after administration
Quantity: Muscle (% ID/g)
Quick reminder: number only, in % ID/g, skip the unit.

Qu. API: value(readout= Muscle, system= LNCaP tumor-transplanted mouse, query= O=C([O-])CN(Cc1cccc(C(=O)[O-])n1)C[C@H](Cc1ccc(NC(=O)[C@H](CCCCNC(=O)CCC(=O)NCCCC[C@H](NC(=O)N[C@@H](CCC(=O)O)C(=O)O)C(=O)O)NC(=O)COCCOCCOCC(=O)N[C@@H](CCCCNC(=O)CCCc2ccc(I)cc2)C(=O)O)cc1)N(CC(=O)[O-])Cc1cccc(C(=O)[O-])n1.[111In+3] [[^111In]In-Octapa-3] )
Ans. 1.51
